Bliss excess by entry:
Test system: SK-HEP-1 (Hepatocellular Carcinoma);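 note: after 72 h of two-drug dosing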
ASSAY PROCEDURE: Bliss excess, mean over the matrix (fraction); higher = more synergy
Number, no unit, nothing else.

[in] Given CC1(C)CCC(CN2CCN(c3ccc(C(=O)NS(=O)(=O)c4ccc(NCC5CCOCC5)c([N+](=O)[O-])c4)c(Oc4cnc5[nH]ccc5c4)c3)CC2)=C(c2ccc(Cl)cc2)C1 [Venetoclax] + C1CN(CCC1(C(=O)N[C@@H](CCO)C2=CC=C(C=C2)Cl)N)C3=NC=NC4=C3C=CN4 [Capivasertib] (first compound max 1 µM, 7x7, partner max 3 µM) , state its recorded Bliss excess.
[out] -0.0525

[in] Look up Bliss excess: Cc1c2c(nn1C)CSCc1cc(n(C)n1)CSc1cc(c3ccccc3c1)OCCCc1c(C(=O)O)n(C)c3c-2c(Cl)ccc13 [AZD5991] + Cn1cnc2c(F)c(Nc3ccc(Br)cc3Cl)c(C(=O)NOCCO)cc21 [Selumetinib] (first compound max 1 µM, 7x7, partner max 3 µM)
[out] -0.0484

[in] So what does the record say about Bliss excess for COc1cccc(OCCCN)c1-c1cc(Nc2cnc(C#N)cn2)n[nH]1 [Prexasertib] + CN(C)CCCOc1ccc(-c2ccc3ncc4c(c3c2)n(C2CCOCC2)c(=O)n4C)cn1 [AZD0156] (first compound max 1 µM, 7x7, partner max 1 µM) ?
[out] -0.0206

[in] Please give the measured Bliss excess for this molecule: N#Cc1cnc(Nc2cc(NC[C@H]3CNCCO3)c(C(F)(F)F)cn2)cn1 [SRA737] + O=c1[nH]cc(F)c(=O)[nH]1 [5-Fluorouracil] (first compound max 10 µM, 7x7, partner max 20 µM)
[out] -0.122

[in] Entry CCN(CCO)CCCOc1ccc2c(Nc3cc(CC(=O)Nc4cccc(F)c4)[nH]n3)ncnc2c1 [AZD2811] + C=CCn1c(=O)c2cnc(Nc3ccc(N4CCN(C)CC4)cc3)nc2n1-c1cccc(C(C)(C)O)n1 [AZD1775] (first compound max 1 µM, partner max 1 µM) : reported Bliss excess = ?
[out] 0.0336

[in] What value of Bliss excess has been reported for the following molecule? Cn1cnc2c(F)c(Nc3ccc(Br)cc3Cl)c(C(=O)NOCCO)cc21 [Selumetinib] + CC(C)n1c(=O)n(C)c2cnc3cc(F)c(-c4ccc(OCCCN5CCCCC5)nc4)cc3c21 [AZD1390] (first compound max 10 µM, 7x7, partner max 0.3 µM)
[out] -0.0043

Next:
[in] What Bliss excess value was documented for this molecule, CN(CCO)CC[C@H](CSc1ccccc1)Nc1ccc(S(=O)(=O)NC(=O)c2ccc(N3CCC([C@@H](O)c4ccccc4-c4ccc(Cl)cc4)CC3)cc2)cc1S(=O)(=O)C(F)(F)F [AZD4320] + C[C@@H](Nc1cc(F)cc(F)c1)c1cc(C(=O)N(C)C)cc2c(=O)cc(N3CCOCC3)oc12 [AZD8186] (first compound max 1 µM, 7x7, partner max 3 µM) ?
[out] 0.0099
